ASSAY METRIC: melting point

COMPOUND | ASSAY METRIC | RESULT
Cn1cc([N+](=O)[O-])nc1C(=O)NN=Cc1ccccc1 [Compound 19] | melting point | 280 to 284 °C
COc1cccc(C=NNC(=O)c2nc([N+](=O)[O-])cn2C)c1 [Compound 24] | melting point | 208 to 210 °C
COc1ccc(O)c(C=NNC(=O)c2nc([N+](=O)[O-])cn2C)c1 [Compound 31] | melting point | 236 to 238 °C
COc1ccc(C=NNC(=O)c2nc([N+](=O)[O-])cn2C)c(O)c1 [Compound 30] | melting point | 214 to 216 °C
COc1cc(O)ccc1C=NNC(=O)c1nc([N+](=O)[O-])cn1C [Compound 33] | melting point | 233 to 235 °C

* * *

Recorded measurements of pIC50, one per entry
- System: MDA-MB-231 cells
- ASSAY PROTOCOL: MTT assay, MDA-MB-231 cells
- Assay type: cell-based, human
- MEASUREMENT CONTEXT: MDA-MB-231 human breast adenocarcinoma, MTT, 24 h, mean SD
pIC50: −log10 of the molar value.

COMPOUND | SYSTEM TESTED | RELATIONAL OPERATOR | pIC50
COc1ccc(C=NNC(=O)c2nc([N+](=O)[O-])cn2C)c(O)c1 [Compound 30] | MDA-MB-231 cells | < | 4.00
N.N.[Cl][Pt][Cl] [Cisplatin, cisplatin] | MDA-MB-231 cells | = | 5.11
COc1cccc2c1C(=O)c1c(O)c3c(c(O)c1C2=O)C[C@@](O)(C(=O)CO)C[C@@H]3O[C@H]1C[C@H](N)[C@H](O)[C@H](C)O1 [Doxo-rubicin, doxorubicin] | MDA-MB-231 cells | = | 5.80
COc1ccc(O)c(C=NNC(=O)c2nc([N+](=O)[O-])cn2C)c1 [Compound 31] | MDA-MB-231 cells | < | 4.00

* * *

COMPOUND STRUCTURE | melting point
COc1ccccc1C=NNC(=O)c1nc([N+](=O)[O-])cn1C | 205 to 208 °C
Cn1cc([N+](=O)[O-])nc1C(=O)NN=Cc1cccc(O)c1 | 208 to 210 °C
Cn1cc([N+](=O)[O-])nc1C(=O)NN=Cc1ccccc1Cl | 234 to 236 °C
COc1ccc(C=NNC(=O)c2nc([N+](=O)[O-])cn2C)cc1 | 224 to 226 °C
Cn1cc([N+](=O)[O-])nc1C(=O)NN=Cc1ccc(C(F)(F)F)cc1 | 208 to 210 °C
COc1cc(Cl)ccc1C=NNC(=O)c1nc([N+](=O)[O-])cn1C | 234 to 237 °C
Cn1cc([N+](=O)[O-])nc1C(=O)NN=Cc1cccc(Cl)c1F | 252 to 255 °C
Cn1cc([N+](=O)[O-])nc1C(=O)NN=Cc1ccccc1F | 214 to 217 °C
COc1cc(C=NNC(=O)c2nc([N+](=O)[O-])cn2C)ccc1O | 241 to 243 °C
Cn1cc([N+](=O)[O-])nc1C(=O)NN=Cc1cccc(Cl)c1 | 276 to 278 °C

* * *

- Test system: Bacillus cereus ATCC 10876
- ASSAY PROTOCOL: Broth microdilution, B. cereus ATCC 10876
- Format: cell-based
- MEASUREMENT CONTEXT: Bc 10876
- Procedure: The antibacterial activity of the obtained thiosemicarbazides and hydrazide–hydrazones was determined by evaluating their ability to inhibit microbial growth in vitro using the broth microdilution method, according to the guidelines of the European Committee on Antimicrobial Susceptibility Testing (EUCAST). […] After incubation, the spectrophotometric absorbance at 570 nm in each well of the plate was read. […]
ASSAY METRIC: MIC (µg/mL)

COMPOUND STRUCTURE | ASSAY METRIC | NUMERIC RESULT
Cn1cc([N+](=O)[O-])nc1C(=O)NNC(=S)Nc1cccc(F)c1 | MIC | 500
Cn1cc([N+](=O)[O-])nc1C(=O)NNC(=S)Nc1cccc(Cl)c1 | MIC | 250
Cc1ccccc1NC(=S)NNC(=O)c1nc([N+](=O)[O-])cn1C | MIC | 500
COc1ccccc1NC(=S)NNC(=O)c1nc([N+](=O)[O-])cn1C | MIC | 1000
Cn1cc([N+](=O)[O-])nc1C(=O)NNC(=S)Nc1ccccc1C(F)(F)F | MIC | 500
